MEASUREMENT CONTEXT: i.p.; minimal lethal dose
Kindly state Min Lethality for each of the entries shown.

Problem: Specify measured Min Lethality for CC1CC(C)CC(C)(N)C1 (stereo not drawn) .
Solution: > 50 mg/kg

Problem: In one line, give reported Min Lethality of the entry CC1(C)CCCC(C)(N)C1 (stereo not drawn) .
Solution: > 60 mg/kg

Continuing:
Problem: Give the reported value of Min Lethality for this record: CC12CC3CC(C)(C1)CC(N)(C3)C2 [Memantine, reference compound]
Solution: > 108 mg/kg
